- assayOverview: AMD070 PK study via SC injection: plasma, lung and liver concentration
- Assay type: in vivo, C57BL/6 mice
- testConditions: C57BL/6; Liver, SC 400 μg/mouse; read-out: Tissue AUC/Plasma AUC
measurementType: Kp
Give the value as a plain number.

Query: Entry under review: NCCCCN(Cc1nc2ccccc2[nH]1)[C@H]1CCCc2cccnc21 . Reported Kp?
Result: 79.7

###

- assayOverview: AMD070 PK study via IP injection: plasma, lung and liver concentration
- Assay type: in vivo, C57BL/6 mice
- testConditions: C57BL/6, 400 ug; Lung, IP 400 μg/mouse
measurementType: Cmax (ng/g)
Express it in ng/g; write the number only.

Query: Request the reported Cmax associated with NCCCCN(Cc1nc2ccccc2[nH]1)[C@H]1CCCc2cccnc21
Result: 6140
